Reported F > B (fold over background) by item:
target desc: T1, MMP-26 catalytic domain, tagged with hexa-histidine (human, UniProt Q9NRE1 90-261)
T1 construct: the forward primer adds Met-Ala before it; also called MMP-26 target protein; Matrilysin-2; not shown: Also any N-terminal residues added by the forward primer (Met-Ala according to our card; the primers were not visible to me)
T1 sequence: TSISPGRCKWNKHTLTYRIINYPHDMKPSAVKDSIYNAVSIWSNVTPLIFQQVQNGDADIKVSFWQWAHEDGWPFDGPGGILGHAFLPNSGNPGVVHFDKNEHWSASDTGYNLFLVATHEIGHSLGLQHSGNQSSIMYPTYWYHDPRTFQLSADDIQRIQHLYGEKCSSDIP
method: bead-based ELISA, MMP-26 on nickel beads, IgG4 culture supernatant
readout: F > B (fold over background)

[[record]]
binder = "D08 (antibody, human IgG4, V domains shown, whole human IgG4) VH: EVQLLESGGGLVQPGGSLRLSCAASGFTFSFYAMWWVRQAPGKGLEWVSRIYSSGGKTWYADSVKGRFTISRDNSKNTLYLQMNSLRAEDTAVYYCARVGMSTYAFDIWGQGTMVTVSS VL: DIQMTQSPSSLSASVGDRVTITCRASQSISDYLNWYQQKPGKAPDLLIYAASSLQSGVPSRFSGSGSGTDFTLTVSSLQPEDFATYFCQQSYSIPLTFGGGTKVEITR"
reported = "3 fold over background"

[[record]]
binder = "B06 (antibody, human IgG4, V domains shown, whole human IgG4) VH: EVQLLESGGGLVQPGGSLRLSCAASGFTFSQYFMKWVRQAPGKGLEWVSSISPSGGLTQYADSVKGRFTISRDNSKNTLYLQMNSLRAEDTAVYYCARGGIEAPGSPSDYWGQGTLVTVSS VL: DIQMTQSPSFLSASVGDRVTITCRASQGISSYLAWYQQKPGKAPKLLIYAASTLQSGVPSRFSGSGSGTDFTLTISSLEPEDFATYYCQESYSTPFFTFGPGTKVDIRR"
reported = "2.1 fold over background"


Source: patent US7514534
